# assay-target: CYP2B6 (Homo sapiens, UniProt P20813)
# Sequence (P20813 whole entry): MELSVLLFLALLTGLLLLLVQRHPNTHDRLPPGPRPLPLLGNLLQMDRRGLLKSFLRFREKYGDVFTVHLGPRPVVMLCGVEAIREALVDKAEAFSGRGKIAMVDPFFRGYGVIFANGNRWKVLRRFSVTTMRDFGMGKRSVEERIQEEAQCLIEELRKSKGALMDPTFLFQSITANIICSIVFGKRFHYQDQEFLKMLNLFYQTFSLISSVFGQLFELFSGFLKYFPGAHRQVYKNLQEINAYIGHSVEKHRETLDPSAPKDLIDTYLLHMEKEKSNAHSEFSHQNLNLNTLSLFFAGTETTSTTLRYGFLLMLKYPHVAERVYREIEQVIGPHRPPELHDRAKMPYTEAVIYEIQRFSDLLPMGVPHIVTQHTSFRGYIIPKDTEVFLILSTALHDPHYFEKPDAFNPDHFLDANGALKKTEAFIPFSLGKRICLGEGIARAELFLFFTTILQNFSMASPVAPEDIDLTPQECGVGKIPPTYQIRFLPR
# test-details: in vitro
# measurement-context: % Inhibition (set 2)
endpoint-name: inhibition at 1.23 μM (%)

CC(C)(CCCCCCCCCCCCC(C)(C)C(=O)O)C(=O)O
3
CC(C)(CCCCCCCCCCC(C)(C)CC(=O)O)CC(=O)O
4

----------
# assay-target: UniProt P08684
# test-details: in vitro
# measurement-context: % Inhibition (set 2)
endpoint-name: inhibition at 3.7 μM (%)

CC(C)(CCCCCCCCCCCCC(C)(C)C(=O)O)C(=O)O
0

----------
# assay-target: CYP2C8 (Homo sapiens)
# test-details: biochemical
endpoint-name: IC50

CC(C)(CCCCCCCCCCCCC(C)(C)C(=O)O)C(=O)O [M16αα]
> 100 µM
CC(C)(CCCCCCCCCCC(C)(C)CC(=O)O)CC(=O)O [M16ββ]
> 100 µM

----------
# assay-target: CYP2C19 (Homo sapiens, UniProt P33261)
# Sequence (P33261 whole entry): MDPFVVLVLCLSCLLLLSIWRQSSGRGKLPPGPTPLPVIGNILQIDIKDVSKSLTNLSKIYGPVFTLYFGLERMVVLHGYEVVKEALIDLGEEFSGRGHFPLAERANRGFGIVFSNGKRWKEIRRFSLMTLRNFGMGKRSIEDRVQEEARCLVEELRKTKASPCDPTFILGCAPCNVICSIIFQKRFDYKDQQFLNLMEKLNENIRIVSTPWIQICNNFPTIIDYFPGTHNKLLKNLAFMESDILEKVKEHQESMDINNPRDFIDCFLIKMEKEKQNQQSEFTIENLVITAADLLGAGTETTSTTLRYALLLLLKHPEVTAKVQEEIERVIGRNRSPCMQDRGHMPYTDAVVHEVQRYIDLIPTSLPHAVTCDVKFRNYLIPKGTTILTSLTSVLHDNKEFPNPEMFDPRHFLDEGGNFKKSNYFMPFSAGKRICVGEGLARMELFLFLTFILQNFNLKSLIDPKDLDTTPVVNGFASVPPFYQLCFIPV
# test-details: in vitro
# measurement-context: % Inhibition (set 2)
inhibition at 0.41 μM listing for selected compounds.
endpoint-name: inhibition at 0.41 μM (%)

CC(C)(CCCCCCCCCCCCC(C)(C)C(=O)O)C(=O)O
2
CC(C)(CCCCCCCCCCC(C)(C)CC(=O)O)CC(=O)O
1

----------
# assay-target: CYP2B6 (Homo sapiens)
# test-details: in vitro
# measurement-context: % Inhibition (set 1)
inhibition at 1.23 μM listing for selected compounds.
endpoint-name: inhibition at 1.23 μM (%)

CC(C)(CCCCCCCCCCC(C)(C)CC(=O)O)CC(=O)O [M16ββ]
4
CC(C)(CCCCCCCCCCCCC(C)(C)C(=O)O)C(=O)O [M16αα]
4

----------
# assay-target: CYP2C9 (Homo sapiens, UniProt P11712)
# Sequence (P11712 whole entry): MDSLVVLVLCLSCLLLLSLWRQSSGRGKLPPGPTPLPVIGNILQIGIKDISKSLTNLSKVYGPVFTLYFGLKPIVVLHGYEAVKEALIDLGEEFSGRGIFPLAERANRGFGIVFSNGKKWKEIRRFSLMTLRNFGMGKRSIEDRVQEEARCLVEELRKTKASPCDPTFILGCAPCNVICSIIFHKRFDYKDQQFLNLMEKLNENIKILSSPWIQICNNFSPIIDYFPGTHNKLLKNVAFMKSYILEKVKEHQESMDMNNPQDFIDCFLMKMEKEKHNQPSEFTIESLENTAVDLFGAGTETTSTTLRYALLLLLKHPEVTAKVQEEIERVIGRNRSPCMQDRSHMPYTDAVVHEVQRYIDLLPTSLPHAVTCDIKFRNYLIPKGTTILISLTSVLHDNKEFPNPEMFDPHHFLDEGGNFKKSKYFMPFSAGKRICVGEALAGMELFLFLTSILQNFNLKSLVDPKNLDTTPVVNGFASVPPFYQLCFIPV
# test-details: Fluorimetric CYP inhibition assay, CYP2C9-MFC
# measurement-context: human, % Inhibition (set 1), positive control 0.02 μM; MFC
endpoint-name: inhibition at 0.02 μM

Nc1ccc(S(=O)(=O)Nc2ccnn2-c2ccccc2)cc1 [Sulfaphenazole]
3%

----------
# assay-target: CYP2C9 (Homo sapiens, UniProt P11712)
# test-details: Fluorimetric CYP inhibition assay, CYP2C9-MFC
# measurement-context: human, % Inhibition (set 1), positive control 0.01 μM (first line); MFC
endpoint-name: inhibition at 0.01 μM (%)

Nc1ccc(S(=O)(=O)Nc2ccnn2-c2ccccc2)cc1
0

----------
# assay-target: UniProt P11712
# test-details: in vitro
# measurement-context: % Inhibition (set 2)
endpoint-name: inhibition at 1.23 μM (%)

CC(C)(CCCCCCCCCCCCC(C)(C)C(=O)O)C(=O)O [M16αα]
9
CC(C)(CCCCCCCCCCC(C)(C)CC(=O)O)CC(=O)O [M16ββ]
10

----------
# assay-target: UniProt P20813
# test-details: in vitro
# measurement-context: % Inhibition (set 1)
endpoint-name: inhibition at 3.7 μM (%)

CC(C)(CCCCCCCCCCCCC(C)(C)C(=O)O)C(=O)O
29
CC(C)(CCCCCCCCCCC(C)(C)CC(=O)O)CC(=O)O
0

----------
# assay-target: UniProtKB P05177
# Sequence (P05177 1-516): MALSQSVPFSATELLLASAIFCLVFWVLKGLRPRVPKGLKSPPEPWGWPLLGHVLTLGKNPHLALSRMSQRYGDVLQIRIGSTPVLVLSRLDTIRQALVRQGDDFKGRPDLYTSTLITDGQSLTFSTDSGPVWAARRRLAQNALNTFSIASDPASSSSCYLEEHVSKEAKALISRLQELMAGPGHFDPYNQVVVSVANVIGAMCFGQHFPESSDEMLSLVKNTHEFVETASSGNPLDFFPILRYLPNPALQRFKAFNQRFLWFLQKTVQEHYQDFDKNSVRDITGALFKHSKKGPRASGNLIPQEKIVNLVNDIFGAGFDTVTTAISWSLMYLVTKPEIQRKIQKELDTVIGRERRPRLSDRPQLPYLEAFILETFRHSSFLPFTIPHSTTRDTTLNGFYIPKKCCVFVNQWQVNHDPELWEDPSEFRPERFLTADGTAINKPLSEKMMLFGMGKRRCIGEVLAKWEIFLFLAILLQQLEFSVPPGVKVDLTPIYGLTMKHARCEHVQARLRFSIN
# test-details: in vitro
# measurement-context: % Inhibition (set 1)
inhibition at 0.05 μM listing for selected compounds.
endpoint-name: inhibition at 0.05 μM (%)

CC(C)(CCCCCCCCCCCCC(C)(C)C(=O)O)C(=O)O
0
CC(C)(CCCCCCCCCCC(C)(C)CC(=O)O)CC(=O)O
0

----------
# assay-target: CYP2C8 (Homo sapiens, UniProt P10632)
# Sequence (P10632 whole entry): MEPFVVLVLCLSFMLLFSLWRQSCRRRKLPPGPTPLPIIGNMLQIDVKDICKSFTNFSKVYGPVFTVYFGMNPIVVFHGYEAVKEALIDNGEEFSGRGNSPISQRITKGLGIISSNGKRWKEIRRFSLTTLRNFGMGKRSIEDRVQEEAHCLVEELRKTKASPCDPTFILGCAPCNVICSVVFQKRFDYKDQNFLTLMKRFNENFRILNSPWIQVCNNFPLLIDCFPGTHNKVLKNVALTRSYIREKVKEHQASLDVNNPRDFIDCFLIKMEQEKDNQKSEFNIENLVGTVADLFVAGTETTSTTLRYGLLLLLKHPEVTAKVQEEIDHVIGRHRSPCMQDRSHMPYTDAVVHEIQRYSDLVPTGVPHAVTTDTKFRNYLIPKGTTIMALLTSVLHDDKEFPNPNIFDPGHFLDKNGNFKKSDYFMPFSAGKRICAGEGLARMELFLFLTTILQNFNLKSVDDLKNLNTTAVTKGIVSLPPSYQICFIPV
# test-details: in vitro
# measurement-context: % Inhibition (set 2)
inhibition at 3.7 μM listing for selected compounds.
endpoint-name: inhibition at 3.7 μM (%)

CC(C)(CCCCCCCCCCC(C)(C)CC(=O)O)CC(=O)O
0
CC(C)(CCCCCCCCCCCCC(C)(C)C(=O)O)C(=O)O
0
O=c1c(O)c(-c2ccc(O)c(O)c2)oc2cc(O)cc(O)c12 [Quercetin, reference compound]
89

----------
# assay-target: UniProt P20813
# test-details: in vitro
# measurement-context: % Inhibition (set 1)
inhibition at 0.41 μM listing for selected compounds.
endpoint-name: inhibition at 0.41 μM

CC(C)(CCCCCCCCCCCCC(C)(C)C(=O)O)C(=O)O
7%
CC(C)(CCCCCCCCCCC(C)(C)CC(=O)O)CC(=O)O
1%

----------
# assay-target: CYP2C9 (Homo sapiens)
# test-details: Fluorimetric CYP inhibition assay, CYP2C9-MFC
# measurement-context: human, % Inhibition (set 1), positive control 5.00 μM; MFC
endpoint-name: inhibition at 5 μM (%)

Nc1ccc(S(=O)(=O)Nc2ccnn2-c2ccccc2)cc1 [Sulfaphenazole]
89

----------
# assay-target: CYP2C8 (Homo sapiens, UniProt P10632)
# test-details: in vitro
# measurement-context: % Inhibition (set 1)
inhibition at 0.05 μM listing for selected molecules.
endpoint-name: inhibition at 0.05 μM (%)

CC(C)(CCCCCCCCCCCCC(C)(C)C(=O)O)C(=O)O
0
CC(C)(CCCCCCCCCCC(C)(C)CC(=O)O)CC(=O)O
8
O=c1c(O)c(-c2ccc(O)c(O)c2)oc2cc(O)cc(O)c12 [Quercetin, reference compound]
8

----------
# assay-target: UniProt:P20813
# test-details: in vitro
# measurement-context: % Inhibition (set 1)
endpoint-name: inhibition at 11.11 μM (%)

CC(C)(CCCCCCCCCCCCC(C)(C)C(=O)O)C(=O)O [M16αα]
8
CC(C)(CCCCCCCCCCC(C)(C)CC(=O)O)CC(=O)O [M16ββ]
5

----------
# assay-target: UniProt P05177
# Sequence (P05177 1-516): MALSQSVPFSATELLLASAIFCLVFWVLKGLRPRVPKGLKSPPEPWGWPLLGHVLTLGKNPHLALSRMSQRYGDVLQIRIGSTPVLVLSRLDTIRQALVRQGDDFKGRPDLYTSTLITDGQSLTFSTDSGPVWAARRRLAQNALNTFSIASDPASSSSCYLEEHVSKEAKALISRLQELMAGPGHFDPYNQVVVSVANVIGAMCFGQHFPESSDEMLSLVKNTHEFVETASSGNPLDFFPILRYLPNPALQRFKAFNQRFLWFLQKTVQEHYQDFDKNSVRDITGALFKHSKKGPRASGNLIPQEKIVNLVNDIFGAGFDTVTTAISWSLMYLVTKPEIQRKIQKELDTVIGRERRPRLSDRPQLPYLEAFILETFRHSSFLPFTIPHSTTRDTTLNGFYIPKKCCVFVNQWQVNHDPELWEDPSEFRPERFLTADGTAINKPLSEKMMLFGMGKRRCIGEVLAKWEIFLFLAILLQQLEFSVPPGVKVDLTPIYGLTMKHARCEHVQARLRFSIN
# test-details: in vitro
# measurement-context: % Inhibition (set 1)
endpoint-name: inhibition at 5.56 μM (%)

Cc1nc2c([nH]1)c(=O)n(C)c(=O)n2Cc1ccco1 [Furafylline, reference compound]
90

----------
The listing below reports IC50 for compounds tested on CYP3A4 (Homo sapiens).
Sequence (P08684 whole entry): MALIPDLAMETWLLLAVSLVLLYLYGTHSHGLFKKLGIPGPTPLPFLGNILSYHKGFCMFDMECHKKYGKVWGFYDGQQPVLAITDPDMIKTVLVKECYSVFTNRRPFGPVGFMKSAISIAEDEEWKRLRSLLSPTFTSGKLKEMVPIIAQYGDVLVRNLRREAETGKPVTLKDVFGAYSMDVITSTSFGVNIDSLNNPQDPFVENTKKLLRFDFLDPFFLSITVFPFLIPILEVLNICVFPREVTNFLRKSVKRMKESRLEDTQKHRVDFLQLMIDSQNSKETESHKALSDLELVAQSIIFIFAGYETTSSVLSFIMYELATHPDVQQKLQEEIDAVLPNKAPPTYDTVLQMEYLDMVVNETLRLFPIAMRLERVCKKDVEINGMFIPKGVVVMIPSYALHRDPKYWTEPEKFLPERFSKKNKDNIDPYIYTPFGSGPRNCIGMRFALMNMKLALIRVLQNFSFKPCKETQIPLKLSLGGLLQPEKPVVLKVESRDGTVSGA
endpoint-name: IC50

CC(C)(CCCCCCCCCCCCC(C)(C)C(=O)O)C(=O)O
> 100 µM
CC(C)(CCCCCCCCCCC(C)(C)CC(=O)O)CC(=O)O
> 100 µM

----------
# assay-target: CYP2C9 (Homo sapiens, UniProt P11712)
# test-details: in vitro
# measurement-context: % Inhibition (set 2)
endpoint-name: inhibition at 33.33 μM (%)

CC(C)(CCCCCCCCCCCCC(C)(C)C(=O)O)C(=O)O [M16αα]
14
CC(C)(CCCCCCCCCCC(C)(C)CC(=O)O)CC(=O)O [M16ββ]
26

----------
# assay-target: CYP2B6 (Homo sapiens)
# test-details: in vitro
# measurement-context: % Inhibition (set 2)
endpoint-name: inhibition at 0.41 μM (%)

CC(C)(CCCCCCCCCCCCC(C)(C)C(=O)O)C(=O)O
0
CC(C)(CCCCCCCCCCC(C)(C)CC(=O)O)CC(=O)O
0
